Hey, just so you know, these numbers are from paper PMC7096528.

Assay system: Staphylococcus aureus lipase (SAL, glycerol ester hydrolase) (Staphylococcus aureus)
Construct: mature form containing 394 amino acid residues (recombinant, His-tagged; residues 4–385 determined in the native structure)
Sequence (A0A0U1MWF9 entry or part of it): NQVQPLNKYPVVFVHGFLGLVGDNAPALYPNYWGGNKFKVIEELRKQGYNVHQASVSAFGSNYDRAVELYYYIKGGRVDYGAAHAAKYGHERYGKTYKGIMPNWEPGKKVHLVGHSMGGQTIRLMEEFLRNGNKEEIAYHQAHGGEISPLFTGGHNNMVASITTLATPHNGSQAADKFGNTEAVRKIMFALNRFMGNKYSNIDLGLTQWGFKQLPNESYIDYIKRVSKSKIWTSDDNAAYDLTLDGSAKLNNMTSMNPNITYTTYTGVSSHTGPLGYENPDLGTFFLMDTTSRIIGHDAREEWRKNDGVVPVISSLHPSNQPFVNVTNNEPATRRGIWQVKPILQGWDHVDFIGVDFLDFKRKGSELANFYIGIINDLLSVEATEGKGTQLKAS
Experimental details: co-crystal structure at […] Å; IC50 from purified-enzyme p-nitrophenyl butyrate hydrolysis assay
Assay readout: IC50 (µM)
Respond with the bare value in µM.

QUERY: Quick one: IC50 of CCCCCCCCCCC[C@@H](C[C@@H]1OC(=O)[C@H]1CCCCCC)OC(=O)[C@H](CC(C)C)NC=O [orlistat] ?
RESULT: 2.4
